# System: OVCAR-5
# Assay Info: NCI tumour cell line growth inhibition, 48 h
Active and inactive are the calls of the source. Rule as the data show it: active = GI50 up to about 1.1 µM and inactive = higher.
Entries and their GI50 values follow.

>  <Compound>
CCC(C(=O)O)c1ccc(OC)cc1 (stereo not drawn)

>  <Target Or System>
OVCAR-5

>  <GI50>
> 100 µM (inactive)

$$$$

What GI50 value was documented for this compound, CCOC(=O)c1ccc(-c2cccs2)n1C ?
> 100 µM (inactive)

Ok, now C=C(C)c1nc(Oc2ccccc2)nc(Oc2ccccc2)n1
16.6 µM (inactive)

Item: CN(C)c1ccc(/N=N/c2ccccn2)cc1
> 100 µM (inactive)

One more compound: Nn1c(CCCCCCCCc2nnc(COc3ccc(Cl)cc3Cl)n2N)nnc1COc1ccc(Cl)cc1Cl
35.6 µM (inactive)

Another compound: Cc1ccc2c(O)cc(-c3ccsc3)nc2n1
15.8 µM (inactive)

Another compound to look at: CC1=CC(=O)/C(=C/NC(N)=S)C(=O)O1
> 100 µM (inactive)

Do the same for O=C1/C(=C/c2ccc(O)cc2)CCC1CNc1ccccc1 (stereo not drawn) please
17.7 µM (inactive)

Also O=C1OC2C(O)C(=O)OC2C1O (stereo not drawn) , if possible.
> 100 µM (inactive)

CCOP(=O)(OCC)c1cc2cc(O)ccc2oc1=O , same question.
> 100 µM (inactive)

What do you have for N#Cc1c(-c2ccccc2)c(C=O)c(=O)n2c1[nH]c1ccccc12 ?
> 100 µM (inactive)

// repeat for S=C1c2ccc(Cl)cc2-n2cnnc2C2CSCN12 (stereo not drawn) and report
> 100 µM (inactive)

Also, O=C(CC(=O)N1N=C(N(c2ccccc2)c2ccccc2)CC1c1ccccc1)Nc1cccc(Cl)c1 (stereo not drawn) please.
> 100 µM (inactive)
